B1: Adenylate kinase, P07170 (parent)
chain: MSSSESIRMVLIGPPGAGKGTQAPNLQERFHAAHLATGDMLRSQIAKGTQLGLEAKKIMDQGGLVSDDIMVNMIKDELTNNPACKNGFILDGFPRTIPQAEKLDQMLKEQGTPLEKAIELKVDDELLVARITGRLIHPASGRSYHKIFNPPKEDMKDDVTGEALVQRSDDNADALKKRLAAYHAQTEPIVDFYKKTGIWAGVDASQPPATVWADILNKLGKD

# Variants of: B1
# ASSAY SETUP: Saccharomyces cerevisiae (strain ATCC 204508 / S288c); pH 7.5; 25 °C; Thermal; Fluorescence; MOPS-NaOH 30 mM; reversible: yes; structure 2AKY; whole UniProt chain shown

>  <MUTATION NAME>
V10I

>  <MEASUREMENT UNIT>
kcal/mol

>  <ddG of mutation (higher = less stable)>
1.2

$$$$
>  <MUTATION NAME>
I215F

>  <MEASUREMENT UNIT>
kcal/mol

>  <ddG of mutation (higher = less stable)>
1.91

$$$$
>  <MUTATION NAME>
T79H

>  <MEASUREMENT UNIT>
kcal/mol

>  <ddG of mutation (higher = less stable)>
2.15

$$$$
>  <MUTATION NAME>
N171D

>  <MEASUREMENT UNIT>
kcal/mol

>  <ddG of mutation (higher = less stable)>
2.15

$$$$
